The reported measurements were obtained from ChEMBL document CHEMBL5532648.

subject-of-test: UniProt:Q9NZI8
Sequence (Q9NZI8 whole entry): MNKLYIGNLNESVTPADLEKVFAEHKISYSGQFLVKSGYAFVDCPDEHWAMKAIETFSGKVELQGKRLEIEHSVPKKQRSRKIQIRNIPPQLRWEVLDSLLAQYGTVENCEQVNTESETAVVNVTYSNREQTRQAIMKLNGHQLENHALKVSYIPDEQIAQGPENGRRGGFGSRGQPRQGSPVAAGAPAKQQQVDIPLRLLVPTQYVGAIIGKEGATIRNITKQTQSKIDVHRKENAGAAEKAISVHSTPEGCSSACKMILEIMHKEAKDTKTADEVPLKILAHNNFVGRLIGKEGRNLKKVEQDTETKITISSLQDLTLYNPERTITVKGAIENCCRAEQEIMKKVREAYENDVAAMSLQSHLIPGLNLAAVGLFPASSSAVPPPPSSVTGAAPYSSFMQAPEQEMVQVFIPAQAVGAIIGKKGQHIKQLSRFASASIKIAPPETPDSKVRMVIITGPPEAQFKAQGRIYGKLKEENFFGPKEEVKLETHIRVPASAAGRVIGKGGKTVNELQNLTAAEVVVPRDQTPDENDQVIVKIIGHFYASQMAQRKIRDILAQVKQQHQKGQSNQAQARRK
assay-procedure: Inhibition of human IGF2BP1 transfected in RKO cells incubated for 24 hrs by split-luciferase assay
Format: cell-based
Activity calls are given as the source filed them. No cut-off for these calls is given here.
Hi! Could you answer with just one of these? YES = active, NO = inactive

# count of solved cases: 6
# compound, category-label
data = [
    ("N#C[Se]Cc1ccc(C(=O)N2CCN(c3ccc4c(c3)OCO4)CC2)cc1", "NO"),
    ("O=C(c1ccc(Cn2ccnc2)cc1)N1CCN(c2ccc3c(c2)OCO3)CC1", "NO"),
    ("O=C(c1ccc(CN2CCCC2)cc1)N1CCCC(Nc2ccc3c(c2)OCO3)C1 (stereo not given)", "YES"),
    ("N#C[Se]Cc1ccc(C(=O)N2CCCC(Nc3ccc4c(c3)OCO4)C2)cc1 (stereo not given)", "YES"),
    ("O=C(c1ccc(Cn2cnnn2)cc1)N1CCN(c2ccc3c(c2)OCO3)CC1", "NO"),
    ("O=C(c1ccc(CN2CCOCC2)cc1)N1CCCC(Nc2ccc3c(c2)OCO3)C1 (stereo not given)", "YES"),
]

What outcome does the record of this test show for NC(=S)NCc1ccc(C(=O)N2CCCC(Nc3ccc4c(c3)OCO4)C2)cc1 (stereo not given) ?
YES

Each compound tested received a call. Report the one for "O=C(c1ccc(CN2CCCC2)cc1)N1CCN(c2ccc3c(c2)OCO3)CC1" .
YES

Query: recorded result category for "NC(=S)NCc1ccc(C(=O)N2CCN(c3ccc4c(c3)OCO4)CC2)cc1" in this test
YES

So what was the verdict on O=C(c1ccc(Cn2cnc([N+](=O)[O-])n2)cc1)N1CCCC(Nc2ccc3c(c2)OCO3)C1 (stereo not given) in this test?
YES
